Field: inhibition at 1 µM. Provide a value for each of the compounds that follow.
Target: CXCR1 (Homo sapiens)
Construct: endogenous in cells; host or cells: human polymorphonucleate leukocytes (PMNs) from blood of healthy volunteers
Sequence (P25024 1-350): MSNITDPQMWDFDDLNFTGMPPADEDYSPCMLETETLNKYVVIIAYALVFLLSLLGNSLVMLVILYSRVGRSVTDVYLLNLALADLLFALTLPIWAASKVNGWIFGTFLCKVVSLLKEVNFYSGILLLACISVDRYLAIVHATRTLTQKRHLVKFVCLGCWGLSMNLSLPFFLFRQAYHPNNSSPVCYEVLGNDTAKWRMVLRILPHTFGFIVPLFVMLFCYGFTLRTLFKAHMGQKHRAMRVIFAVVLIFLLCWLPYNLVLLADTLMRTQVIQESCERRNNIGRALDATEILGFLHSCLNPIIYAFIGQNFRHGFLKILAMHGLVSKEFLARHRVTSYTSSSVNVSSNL
Assay: IL-8 induced PMN chemotaxis test
Type: cell-based
Settings: compound 10^−6 M; IL-8 induced PMN chemotaxis; IL-8 10^−9 M; read-out: % inhibition (C = 10^−6 M)
Give your result as the value with the unit written after it.

(Q) # query: inhibition at 1 µM of entry CC(C(=O)O)c1ccccc1Nc1c(Cl)cccc1Cl (racemic)
(A) 52%

(Q) # query: inhibition at 1 µM of entry CC(C(=O)O)c1cccc(C(C)c2ccccc2)c1 (stereo not shown)
(A) 54%

(Q) # query: inhibition at 1 µM of entry CC(C)c1cccc([C@@H](C)C(=O)O)c1
(A) 43%

(Q) # query: inhibition at 1 µM of entry CC(C)c1cccc(C(C)C(=O)O)c1 (stereo not shown) [Example 5, 2-[(3′-isopropyl)phenyl]propionic acid]
(A) 51%

(Q) # query: inhibition at 1 µM of entry CC(C)c1cccc([C@H](C)C(=O)O)c1
(A) 50%

(Q) # query: inhibition at 1 µM of entry CCC(CC)c1cccc(C(C)C(=O)O)c1 (racemic)
(A) 58%

(Q) # query: inhibition at 1 µM of entry CC(O)c1cccc(C(C)C(=O)O)c1 (stereo not shown)
(A) 57%

(Q) # query: inhibition at 1 µM of entry C[C@H](C(=O)O)c1ccccc1Nc1c(Cl)cccc1Cl
(A) 50%

(Q) # query: inhibition at 1 µM of entry C[C@@H](C(=O)O)c1ccccc1Nc1c(Cl)cccc1Cl
(A) 46%

(Q) # query: inhibition at 1 µM of entry CC(C(=O)O)c1ccccc1Oc1c(Cl)cccc1Cl (racemic)
(A) 41%

----------
Target: CXCR1 (Homo sapiens)
Construct: endogenous in cells; host or cells: human polymorphonucleate leukocytes (PMNs) from blood of healthy volunteers
Assay: IL-8 induced PMN chemotaxis test
Assay type: cell-based
Settings: compound 10^−8 M; PMN chemotaxis induced by IL-8; read-out: % of inhibition IL-8 (c = 10^−8 M)
Category key, based on recorded inhibition at 0.01 µM: low end (below 50%), middle (50% to below 60%), high end (60% or more)

(Q) Consider CC(C)S(=O)(=O)Nc1ccc([C@@H](C)C(=O)O)cc1 [Example 29] . To which inhibition at 0.01 µM class does it belong?
(A) middle

(Q) Consider C[C@@H](C(=O)O)c1ccc(NS(C)(=O)=O)cc1 [Example 28] . To which inhibition at 0.01 µM class does it belong?
(A) low end

(Q) Consider C[C@@H](C(=O)O)c1ccc(OS(N)(=O)=O)cc1 [Example 41] . To which inhibition at 0.01 µM class does it belong?
(A) high end

(Q) Consider CCc1ccccc1S(=O)(=O)Oc1ccc([C@@H](C)C(=O)O)cc1 [Example 40] . To which inhibition at 0.01 µM class does it belong?
(A) low end

(Q) Consider C[C@@H](C(=O)O)c1ccc(OS(=O)(=O)C(F)(F)F)cc1 [Example 37] . To which inhibition at 0.01 µM class does it belong?
(A) high end

(Q) Consider C[C@@H](C(=O)O)c1ccc(NS(N)(=O)=O)cc1 [Example 34] . To which inhibition at 0.01 µM class does it belong?
(A) middle

(Q) Consider C[C@@H](C(=O)O)c1ccc(NS(=O)(=O)c2ccccc2Cl)cc1 [Example 32] . To which inhibition at 0.01 µM class does it belong?
(A) low end

(Q) Consider C[C@@H](C(=O)O)c1ccc(CS(=O)(=O)C(F)(F)F)cc1 [Example 43] . To which inhibition at 0.01 µM class does it belong?
(A) low end

----------
Molecular target: CXCR1 (Homo sapiens, UniProt P25024)
Construct: endogenous in cells; host or cells: human polymorphonucleate leukocytes (PMNs) from blood of healthy volunteers
Assay: IL-8 induced PMN chemotaxis test
Format: cell-based
Conditions: compound 10^−8 M; PMN chemotaxis induced by IL-8; read-out: % of inhibition IL-8 (c = 10^−8 M)
Answer condition not met if inhibition at 0.01 µM is under 50%, and condition met if it is 50% or more.

(Q) Could you please find out whether C[C@@H](C(=O)O)c1ccc(NS(=O)(=O)C(F)(F)F)cc1 [Example 30] has inhibition at 0.01 µM that meets 50% or exceeds it?
(A) condition not met

(Q) Could you please find out whether C[C@@H](C(=O)O)c1ccc(OS(=O)(=O)c2ccccc2Cl)cc1 [Example 39] has inhibition at 0.01 µM that meets 50% or exceeds it?
(A) condition not met

(Q) Could you please find out whether C[C@@H](C(=O)O)c1ccc(OS(=O)(=O)Cc2ccccc2)cc1 [Example 36] has inhibition at 0.01 µM that meets 50% or exceeds it?
(A) condition met

(Q) Could you please find out whether CCc1ccccc1S(=O)(=O)Nc1ccc([C@@H](C)C(=O)O)cc1 [Example 33] has inhibition at 0.01 µM that meets 50% or exceeds it?
(A) condition not met

----------
Target: CXCR2 (Homo sapiens)
Construct: endogenous in cells; host or cells: human polymorphonucleate leukocytes (PMNs) from blood of healthy volunteers
Sequence (P25025 whole entry): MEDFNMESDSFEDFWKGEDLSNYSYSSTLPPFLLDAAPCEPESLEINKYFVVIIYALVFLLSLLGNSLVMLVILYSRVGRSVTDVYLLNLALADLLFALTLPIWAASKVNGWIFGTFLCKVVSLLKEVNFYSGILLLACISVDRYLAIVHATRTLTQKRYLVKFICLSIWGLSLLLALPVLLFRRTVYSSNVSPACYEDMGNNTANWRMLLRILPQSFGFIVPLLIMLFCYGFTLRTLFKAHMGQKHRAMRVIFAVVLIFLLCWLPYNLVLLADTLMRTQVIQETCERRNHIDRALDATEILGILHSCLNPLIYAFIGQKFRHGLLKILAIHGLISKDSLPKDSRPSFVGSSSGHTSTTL
Experiment: GRO-α induced PMN chemotaxis test
Format: cell-based
Settings: compound 10^−8 M; PMN chemotaxis induced by GRO-α; read-out: % of inhibition GRO-α (c = 10^−8 M)
Category key, based on recorded inhibition at 0.01 µM: low class (below 30%), middle class (30% to below 60%), high class (60% or more)

(Q) Consider C[C@@H](C(=O)O)c1ccc(CS(=O)(=O)C(F)(F)F)cc1 . To which inhibition at 0.01 µM class does it belong?
(A) middle class

(Q) Consider CCc1ccccc1S(=O)(=O)Oc1ccc([C@@H](C)C(=O)O)cc1 . To which inhibition at 0.01 µM class does it belong?
(A) high class

(Q) Consider C[C@@H](C(=O)O)c1ccc(OS(N)(=O)=O)cc1 . To which inhibition at 0.01 µM class does it belong?
(A) low class

(Q) Consider C[C@@H](C(=O)O)c1ccc(OS(=O)(=O)Cc2ccccc2)cc1 . To which inhibition at 0.01 µM class does it belong?
(A) low class

(Q) Consider C[C@@H](C(=O)O)c1ccc(NS(N)(=O)=O)cc1 . To which inhibition at 0.01 µM class does it belong?
(A) low class

(Q) Consider C[C@@H](C(=O)O)c1ccc(CS(=O)(=O)c2ccccc2)cc1 . To which inhibition at 0.01 µM class does it belong?
(A) middle class

(Q) Consider CC(C)S(=O)(=O)Oc1ccc([C@@H](C)C(=O)O)cc1 . To which inhibition at 0.01 µM class does it belong?
(A) middle class

(Q) Consider CCc1ccccc1S(=O)(=O)Nc1ccc([C@@H](C)C(=O)O)cc1 . To which inhibition at 0.01 µM class does it belong?
(A) high class

(Q) Consider C[C@@H](C(=O)O)c1ccc(NS(=O)(=O)Cc2ccccc2)cc1 . To which inhibition at 0.01 µM class does it belong?
(A) low class

(Q) Consider C[C@@H](C(=O)O)c1ccc(NS(=O)(=O)c2ccccc2Cl)cc1 . To which inhibition at 0.01 µM class does it belong?
(A) high class

(Q) Consider C[C@@H](C(=O)O)c1ccc(NS(C)(=O)=O)cc1 . To which inhibition at 0.01 µM class does it belong?
(A) middle class

(Q) Consider C[C@@H](C(=O)O)c1ccc(NS(=O)(=O)C(F)(F)F)cc1 . To which inhibition at 0.01 µM class does it belong?
(A) middle class

(Q) Consider C[C@@H](C(=O)O)c1ccc(OS(=O)(=O)c2ccccc2Cl)cc1 . To which inhibition at 0.01 µM class does it belong?
(A) high class

(Q) Consider CC(C)S(=O)(=O)Nc1ccc([C@@H](C)C(=O)O)cc1 . To which inhibition at 0.01 µM class does it belong?
(A) middle class

Every entry's value here was drawn from patent US8063242B2.
